target: AKT1 E17K (Homo sapiens, UniProt P31749, E17K); assay: Live cell AKT1 E17K target engagement by NanoBRET competitive probe displacement; conditions: HEK293 cells transfected with kinase-NanoLuciferase fusion, 2 h at 37° C.
Sequence (P31749 whole entry E17K, the tested form may be a part): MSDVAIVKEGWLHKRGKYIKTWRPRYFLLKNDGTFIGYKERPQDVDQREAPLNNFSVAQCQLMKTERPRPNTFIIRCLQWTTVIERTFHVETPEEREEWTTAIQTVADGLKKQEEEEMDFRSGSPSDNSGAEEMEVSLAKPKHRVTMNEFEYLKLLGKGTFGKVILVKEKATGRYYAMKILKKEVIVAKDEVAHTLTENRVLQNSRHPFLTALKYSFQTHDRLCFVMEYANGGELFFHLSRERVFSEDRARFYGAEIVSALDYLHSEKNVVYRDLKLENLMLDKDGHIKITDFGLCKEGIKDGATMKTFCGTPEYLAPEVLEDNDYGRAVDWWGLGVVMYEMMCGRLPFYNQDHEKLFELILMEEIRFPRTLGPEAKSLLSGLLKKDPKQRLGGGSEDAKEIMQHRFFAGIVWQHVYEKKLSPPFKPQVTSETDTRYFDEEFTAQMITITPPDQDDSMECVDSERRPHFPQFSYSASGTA
readout: log10 of IC50 (log10 of the value in µM)

# compound, log10 of IC50
records = [
    ("C=CC(=O)N1CCC(N[C@H]2CCc3cc(-n4c(-c5cccnc5N)nc5ccc(N6CCCC6)nc54)ccc32)CC1 [Example 170]", -1.90),
    ("C=CC(=O)N1CCC(N[C@H]2CCc3cc(-n4c(-c5cccnc5N)nc5ccc(-n6cccn6)nc54)ccc32)CC1CC#N (single isomer, unassigned) [Example 326]", -2.14),
    ("C=CC(=O)N1C2CCC1CC(N[C@H]1CCc3cc(-n4c(-c5cccnc5N)nc5ccc(-n6cccn6)nc54)ccc31)C2 (stereo partly drawn) [Example 27]", -0.97),
    ("C=CC(=O)N1CCC(N[C@H]2CCc3cc(-n4c(-c5cccnc5N)nc5ccc(C6CC6)nc54)ccc32)C(C)C1 (single isomer, unassigned) [Example 230]", -1.38),
    ("C=CC(=O)N1CCC(N[C@H]2CCc3cc(-n4c(-c5cccnc5N)nc5ccc(-n6cccn6)nc54)ccc32)C[C@H]1C (single isomer, unassigned) [Example 63]", -1.32),
    ("C=CC(=O)N1CCC(N[C@H]2CCc3cc(-n4c(-c5cccnc5N)nc5ccc(-n6cccn6)nc54)ccc32)CC12CCC2 (single isomer, unassigned) [Example 93]", -2.21),
    ("C=CC(=O)N1CCC(N[C@@H]2c3ccc(-n4c(-c5cccnc5N)nc5ccc(-n6cccn6)nc54)cc3CC2C)CC1 (single isomer, unassigned) [Example 182]", -0.82),
    ("C=CC(=O)N1CCC(N[C@H]2CCc3cc(-n4c(-c5cccnc5F)nc5ccc(-n6cccn6)nc54)ccc32)CC1 [Example 251]", -0.95),
    ("C=CC(=O)N1CCC(N[C@H]2CCc3cc(-n4c(-c5cccnc5N)nc5ccc(-n6cccn6)nc54)ccc32)CC1 [Example 13]", -1.25),
    ("C=CC(=O)N1CCC(N[C@@H]2c3ccc(-n4c(-c5cccnc5N)nc5ccc(-n6ccc(F)n6)nc54)cc3CC2F)C[C@H]1C (single isomer, unassigned) [Example 276]", -1.51),
    ("CN(C)C/C=C/C(=O)Nc1ccccc1C(=O)N[C@H]1CCc2cc(-n3c(-c4cccnc4N)nc4ccc(-n5cccn5)nc43)ccc21 [Example 16]", -1.28),
    ("C=CC(=O)N1CCC(N[C@H]2CCc3cc(-n4c(-c5cccnc5N)nc5ccc(C6CC6)nc54)ccc32)C(C)C1 (single isomer, unassigned) [Example 229]", -1.66),
    ("C=CC(=O)N1CCC(NC2c3ccc(-n4c(-c5cccnc5N)nc5ccc(-n6ccc(C7CC7)n6)nc54)cc3CC2F)CC1C(F)F (single isomer, unassigned) [Example 335]", -2.02),
    ("C=CC(=O)N1C[C@@H]2[C@H](C1)[C@@H]2NC1CCc2cc(-n3c(-c4cccnc4N)nc4ccc(-n5cccn5)nc43)ccc21 (stereo partly drawn) [Example 345]", -1.47),
    ("C=CC(=O)N1CC(N[C@H]2CCc3cc(-n4c(-c5cccnc5N)nc5ccc(-n6cccn6)nc54)ccc32)C1 [Example 28]", -1.09),
    ("C=C(Cl)C(=O)Nc1ccccc1C(=O)N[C@H]1CCc2cc(-n3c(-c4cccnc4N)nc4ccc(-n5cccn5)nc43)ccc21 [Example 38]", -0.06),
    ("C=CC(=O)N1CC2CCC(C1)C2N[C@H]1CCc2cc(-n3c(-c4cccnc4N)nc4ccc(-n5cccn5)nc43)ccc21 (stereo partly drawn) [Example 14]", -0.36),
    ("C=CC(=O)N1CCC(N[C@H]2CCc3cc(-n4c(-c5cccnc5N)nc5ccc(-n6ccc(COC)n6)nc54)ccc32)CC1 [Example 280]", -1.69),
]

Source listed as patent US12570655B2.
